# EXPERIMENT DESCRIPTION: in vitro
# Format: in vitro ADME
# MEASUREMENT SETUP: human, Caco-2
Response field label takes 1 when efflux ratio at 90 min is strictly below 1 and 0 in all other cases.

Known results for molecules:
>  <MOLECULE>
N#C[C@@]1(c2ccc3c(NC(=O)[C@@H](N)Cc4ccc(F)cc4)ncnn23)O[C@H](CO)[C@@H](OC(=O)CC2CCCCC2)[C@H]1O

>  <ANSWER LABEL>
0

$$$$
>  <MOLECULE>
CNc1nc(N)nc2c1ncn2[C@@H]1O[C@H](COC(C)=O)[C@@H](OC(=O)CC(C)C)[C@@]1(C)F

>  <ANSWER LABEL>
1

$$$$
>  <MOLECULE>
CNc1nc(N)nc2c1ncn2[C@@H]1O[C@H](COC(C)=O)[C@@H](O)[C@@]1(C)F

>  <ANSWER LABEL>
1

$$$$
>  <MOLECULE>
CCCCC(=O)Nc1ncnn2c([C@]3(C#N)O[C@H](COC(=O)C(C)C)[C@@H](O)[C@H]3O)ccc12

>  <ANSWER LABEL>
0

$$$$
>  <MOLECULE>
CCC(=O)O[C@@H]1[C@@H](COC(=O)C(C)C)O[C@@H](n2cnc3c(NC)nc(N)nc32)[C@]1(C)F

>  <ANSWER LABEL>
1

$$$$

Input line: I wonder whether N#C[C@@]1(c2ccc3c(N)ncnn23)O[C@H](COP(=O)(O)OCCCCCCCCCCCCCCCC(=O)O)[C@@H](O)[C@H]1O has efflux ratio at 90 min below 1. Can you tell?
Output line: 0

Input line: Same question, CCCCC(=O)Nc1ncnn2c([C@]3(C#N)O[C@H](COC(=O)CC4CCCCC4)[C@@H](O)[C@H]3O)ccc12 this time
Output line: 1

Input line: Same question, CC(C)[C@H](N)C(=O)Nc1ncnn2c([C@]3(C#N)O[C@H](CO)[C@@H](O)[C@H]3O)ccc12 this time
Output line: 0

Input line: Same question, CN(C(=O)CC1CCCCC1)c1nc(N)nc2c1ncn2[C@@H]1O[C@H](COC(=O)CC2CCCCC2)[C@@H](O)[C@@]1(C)F this time
Output line: 0

Input line: Same question, CNc1nc(N)nc2c1ncn2[C@@H]1O[C@H](COC(=O)C(C)C)[C@@H](OC(=O)CC2CCCCC2)[C@@]1(C)F this time
Output line: 1
